Exercise: for every item that follows, state its recorded Lewis basicity LB.
experiment: Lewis basicity LB from equilibrium constants (photometric titrations) with benzhydrylium ions as reference Lewis acids; type: physicochemical; details: in dichloromethane, 20 °C
One number for each entry.

c1ccc(C2CN3CCSC3=N2)cc1 (centres unmarked) [ITU1, tetramisole, reference compound]; 15.50
c1ccc([C@@H]2CCN3C(=N2)Sc2ccccc23)cc1 [ITU4, HBTM]; 13.43

Required: Lewis basicity LB, one value per compound below.
1. COc1ccc2c(c1)SC1=N[C@H](c3ccccc3)CN12 [MeO-ITU2, 7-MeO-BTM]
2. c1ccc([C@@H]2CN3C(=N2)Sc2ccccc23)cc1 [ITU2, benzotetramisole]
3. CC(C)[C@@H]1CN2C(=N[C@@H]1c1ccccc1)Oc1ccccc12 [IU5, OHyperBTM]
4. c1ccc([C@@H]2CN3C(=N2)[Se]c2ccccc23)cc1 [ISeU2, SeBTM]
5. c1ccc([C@@H]2CCN3C(=N2)[Se]c2ccccc23)cc1 [ISeU4, SeHBTM]

1: 15.22; 2: 14.88; 3: 12.42; 4: 15.23; 5: 14.03

Return reported Lewis basicity LB values for all items listed beneath this line.
1. c1ccc([C@@H]2CN3C(=N2)[Te]c2ccccc23)cc1 [ITeU2, TeBTM]
2. CC(C)[C@@H]1CN2C(=N[C@@H]1c1ccccc1)[Se]c1ccccc12 [ISeU5, SeHyperBTM]

[17.09, 14.75]

Below is a list of compounds. For each, state its recorded Lewis basicity LB.
1. CC(C)[C@@H]1CN2C(=N[C@@H]1c1ccccc1)Sc1ccccc12 [ITU5, HyperBTM]
2. c1ccc2c(c1)[Te]C1=NCCCN12 [ITeU3, TeDHPB]
3. c1ccc2c(c1)[Se]C1=NCCCN12 [ISeU3, SeDHPB]
4. c1ccc2c(c1)OC1=NCCCN12 [IU3, ODHPB]
5. Fc1ccc2c(c1)SC1=N[C@H](c3ccccc3)CN12 [F-ITU2, 7-F-BTM]

1: 14.12; 2: 17.13; 3: 15.54; 4: 13.66; 5: 14.18

* * *

I'd be grateful if you could share measured Nucleophilicity parameter N for these entries.
experiment: Mayr nucleophilicity parameters N and sN (benzhydrylium methodology, Mayr-Patz equation); type: physicochemical; settings: dichloromethane, 20 °C
Answers are plain numbers.

For orientation, consider the following solved cases.
CC(C)[C@@H]1CN2C(=N[C@@H]1c1ccccc1)Oc1ccccc12; 13.01
CC(C)[C@@H]1CN2C(=N[C@@H]1c1ccccc1)[Se]c1ccccc12; 16.11
c1ccc([C@@H]2CN3C(=N2)[Te]c2ccccc23)cc1; 14.62

Provide Nucleophilicity parameter N for all items below, preserving their order.
1. c1ccc2c(c1)[Se]C1=NCCCN12
2. c1ccc([C@@H]2CN3C(=N2)Sc2ccccc23)cc1
3. c1ccc2c(c1)[Te]C1=NCCCN12
4. c1ccc([C@@H]2CN3C(=N2)[Se]c2ccccc23)cc1
5. c1ccc(C2CN3CC[Se]C3=N2)cc1 (stereo not drawn)

1: 15.16; 2: 13.06; 3: 16.63; 4: 14.27; 5: 15.26

Each of the following entries comes with a recorded value; kindly state Nucleophilicity parameter N for each.
1. COc1ccc2c(c1)SC1=N[C@H](c3ccccc3)CN12
2. c1ccc(C2CN3CCSC3=N2)cc1 (stereo not drawn) [ITU1, tetramisole, reference compound]
3. c1ccc([C@@H]2CCN3C(=N2)[Se]c2ccccc23)cc1
4. c1ccc2c(c1)OC1=NCCCN12

[13.15, 13.86, 14.42, 13.31]

* * *

experiment: Mayr nucleophilicity parameters N and sN (benzhydrylium methodology, Mayr-Patz equation); format: physicochemical; conditions: dichloromethane, 20 °C
True if Nucleophile-specific sensitivity parameter sN is below 0.7. False if not; exact matches included in False.

See these solved cases before continuing.
Fc1ccc2c(c1)SC1=N[C@H](c3ccccc3)CN12; True
c1ccc([C@@H]2CN3C(=N2)[Te]c2ccccc23)cc1; True
COc1ccc2c(c1)SC1=N[C@H](c3ccccc3)CN12; False
c1ccc2c(c1)[Te]C1=NCCCN12; True
CC(C)[C@@H]1CN2C(=N[C@@H]1c1ccccc1)[Se]c1ccccc12; True

Dear reviewer, please state whether "c1ccc([C@@H]2CN3C(=N2)Sc2ccccc23)cc1" has Nucleophile-specific sensitivity parameter sN strictly beneath 0.7.
False

Given the entry "c1ccc2c(c1)[Se]C1=NCCCN12" , would its reported Nucleophile-specific sensitivity parameter sN be below 0.7?
True

* * *

test: Mayr nucleophilicity parameters N and sN (benzhydrylium methodology, Mayr-Patz equation); format: physicochemical; conditions: dichloromethane, 20 °C
Doc: threshold 0.7 (exclusive). Items with Nucleophile-specific sensitivity parameter sN beneath it return yes; others return no.

Here are 3 molecules together with their reported answers.
c1ccc(C2CN3CC[Se]C3=N2)cc1 (stereo not drawn); yes
CC(C)[C@@H]1CN2C(=N[C@@H]1c1ccccc1)Oc1ccccc12; no
c1ccc([C@@H]2CN3C(=N2)[Se]c2ccccc23)cc1; yes

Now let's try a different one.
Identify whether the molecule "c1ccc([C@@H]2CCN3C(=N2)[Se]c2ccccc23)cc1" records Nucleophile-specific sensitivity parameter sN below 0.7.
yes
